From: patent US20130302282A1

Test system: 1b_Huh-Luc/Neo-ET cell line (bicistronic genotype 1b replicon in Huh 7 cells)
Protocol summary: HCV 1b replicon assay, luciferase readout
Format: cell-based, HCV genotype 1b
Test settings: Hepatitis C virus, Huh-7, class symbol; HCV genotype 1b replicon; read-out: Inhibition of HCV genotype 1b replicon
pEC50: −log10 of the molar value.
Would you kindly list pEC50 for each of these molecules?

Provide the documented pEC50 with 1b_Huh-Luc/Neo-ET cell line (bicistronic genotype 1b replicon in Huh 7 cells) as the system for CNC(=O)c1c(-c2ccc(F)cc2OC)oc2cc3c(cc12)C(C)CCCN3S(C)(=O)=O (stereo not drawn)
7.00 to 8.00

Request - read-out pEC50 | tested on 1b_Huh-Luc/Neo-ET cell line (bicistronic genotype 1b replicon in Huh 7 cells) | molecule CNC(=O)c1c(-c2ccc(F)cc2)oc2cc3c(cc12)CCCN3S(C)(=O)=O
6.00 to 7.00

Item CNC(=O)c1c(-c2ccc(F)cc2)oc2cc3c(cc12)C(C)OC(CNC(=O)OC)CN3S(C)(=O)=O (stereo not drawn) with 1b_Huh-Luc/Neo-ET cell line (bicistronic genotype 1b replicon in Huh 7 cells) - pEC50?
> 8.00

Reported pEC50 for 1b_Huh-Luc/Neo-ET cell line (bicistronic genotype 1b replicon in Huh 7 cells), given CNC(=O)c1c(-c2ccc(F)cc2)oc2cc3c(cc12)[C@H](C)O[C@H](CCS(C)(=O)=O)CN3S(C)(=O)=O ?
> 8.00

Look up pEC50 with 1b_Huh-Luc/Neo-ET cell line (bicistronic genotype 1b replicon in Huh 7 cells) for this molecule: CNC(=O)c1c(-c2ccc(Oc3ccc(F)cc3)cc2)oc2cc3c(cc12)[C@H](C)O[C@H](COP(=O)(O)O)CN3S(C)(=O)=O
> 8.00

Identify the measured pEC50 of CNC(=O)c1c(-c2ccc(Oc3ccc(F)cc3)cc2)oc2cc3c(cc12)C(C)OC(CCO)CN3S(C)(=O)=O (stereo not drawn) for 1b_Huh-Luc/Neo-ET cell line (bicistronic genotype 1b replicon in Huh 7 cells).
7.00 to 8.00

Give recorded pEC50 with 1b_Huh-Luc/Neo-ET cell line (bicistronic genotype 1b replicon in Huh 7 cells) for the following molecule: CNC(=O)c1c(-c2ccc(F)cc2)oc2cc3c(cc12)[C@H](C)O[C@@H](CCO)CN3S(C)(=O)=O
7.00 to 8.00

What reported pEC50 corresponds to CNC(=O)c1c(-c2ccc(Oc3ccc(F)cc3)cc2)oc2cc3c(cc12)C(C)n1nncc1CN3S(C)(=O)=O (stereo not drawn) on 1b_Huh-Luc/Neo-ET cell line (bicistronic genotype 1b replicon in Huh 7 cells)?
> 8.00

Item: CNC(=O)c1c(-c2ccc(Oc3ccc(F)cc3)cc2)oc2cc3c(cc12)[C@H](C)O[C@@H](CS(C)(=O)=O)CN3S(C)(=O)=O Test system: 1b_Huh-Luc/Neo-ET cell line (bicistronic genotype 1b replicon in Huh 7 cells) Read-out: pEC50 Value: ?
7.00 to 8.00

Fill in the recorded pEC50 for this molecule, with 1b_Huh-Luc/Neo-ET cell line (bicistronic genotype 1b replicon in Huh 7 cells) as test system: CNC(=O)c1c(-c2ccc(F)cc2)oc2cc3c(cc12)C(C)NCCN3S(C)(=O)=O (stereo not drawn)
7.00 to 8.00

Provide the documented pEC50 with 1b_Huh-Luc/Neo-ET cell line (bicistronic genotype 1b replicon in Huh 7 cells) as the system for CNC(=O)c1c(-c2ccc(F)cc2)oc2cc3c(cc12)C(C)N(CC(F)F)CCN3S(C)(=O)=O (stereo not drawn)
> 8.00

Form field - read-out: pEC50; system: 1b_Huh-Luc/Neo-ET cell line (bicistronic genotype 1b replicon in Huh 7 cells); submitted item: CNC(=O)c1c(-c2ccc(F)cc2)nn2cc3c(cc12)[C@H](C)CCCN3S(C)(=O)=O (single isomer, unassigned)
6.00 to 7.00

Lab note: need pEC50 for CNC(=O)c1c(-c2ccc(Oc3ccc(F)cc3)cc2)oc2cc3c(cc12)[C@@H](C)OC1(CC1)CN3S(C)(=O)=O (single isomer, unassigned) on 1b_Huh-Luc/Neo-ET cell line (bicistronic genotype 1b replicon in Huh 7 cells), anyone have it?
7.00 to 8.00

Form: Entry = CNC(=O)c1c(-c2ccc(F)cc2)oc2cc3c(cc12)C(C)N(CCF)CCN3S(C)(=O)=O (stereo not drawn) | System = 1b_Huh-Luc/Neo-ET cell line (bicistronic genotype 1b replicon in Huh 7 cells) | pEC50 = ____
7.00 to 8.00

Under 1b_Huh-Luc/Neo-ET cell line (bicistronic genotype 1b replicon in Huh 7 cells): pEC50 value of CNC(=O)c1c(-c2ccc(F)cc2)oc2cc3c(cc12)C(C)OC(CO)CN3S(C)(=O)=O (stereo not drawn) ?
7.00 to 8.00

Param readout = pEC50; param system = 1b_Huh-Luc/Neo-ET cell line (bicistronic genotype 1b replicon in Huh 7 cells); param query = CNC(=O)c1c(-c2ccc(F)cc2)nc2cc3c(cn12)C(C)CCCN3S(C)(=O)=O (stereo not drawn) ; response: value
6.00 to 7.00

Write down the reported pEC50 of CNC(=O)c1c(-c2ccc(Oc3ccc(F)cc3)cc2)oc2cc3c(cc12)C=CCCN3S(C)(=O)=O , test system: 1b_Huh-Luc/Neo-ET cell line (bicistronic genotype 1b replicon in Huh 7 cells).
6.00 to 7.00

Provide value of pEC50 for this record tested with 1b_Huh-Luc/Neo-ET cell line (bicistronic genotype 1b replicon in Huh 7 cells): CNC(=O)c1c(-c2ccc(F)cc2)oc2cc3c(cc12)C(C)OC(C)(C)CN3S(C)(=O)=O (stereo not drawn)
7.00 to 8.00

For the record CNC(=O)c1c(-c2ccc(F)cc2)oc2cc3c(cc12)[C@H](C)N1CCC[C@@H]1CN3S(C)(=O)=O (single isomer, unassigned) , what value of pEC50 is listed for 1b_Huh-Luc/Neo-ET cell line (bicistronic genotype 1b replicon in Huh 7 cells)?
> 8.00

Observed pEC50 on 1b_Huh-Luc/Neo-ET cell line (bicistronic genotype 1b replicon in Huh 7 cells) for CNC(=O)c1c(-c2ccc(F)cc2)oc2cc3c(cc12)C(C)OC(C)CN3S(C)(=O)=O (stereo not drawn) , please.
> 8.00

Find pEC50 (1b_Huh-Luc/Neo-ET cell line (bicistronic genotype 1b replicon in Huh 7 cells)) for the entry CNC(=O)c1c(-c2ccc(F)cc2)nn2cc3c(cc12)CCCCCN3S(C)(=O)=O
7.00 to 8.00

Lab note: need pEC50 for CC1c2cc3c(-c4ncc[nH]4)c(-c4ccc(Oc5ccc(F)cc5)cc4)oc3cc2N(S(C)(=O)=O)CCN1C (stereo not drawn) on 1b_Huh-Luc/Neo-ET cell line (bicistronic genotype 1b replicon in Huh 7 cells), anyone have it?
7.00 to 8.00

So what pEC50 did CNC(=O)c1c(-c2ccc(F)cc2)oc2cc3c(cc12)[C@@H](C)c1ccccc1CN3S(C)(=O)=O (single isomer, unassigned) get with 1b_Huh-Luc/Neo-ET cell line (bicistronic genotype 1b replicon in Huh 7 cells)?
7.00 to 8.00

// lookup pEC50 | system=1b_Huh-Luc/Neo-ET cell line (bicistronic genotype 1b replicon in Huh 7 cells) | key= CNC(=O)c1c(-c2ccc(F)cc2)oc2cc3c(cc12)[C@H](C)O[C@H](CS(C)(=O)=O)CN3S(C)(=O)=O
> 8.00

Look up pEC50 with 1b_Huh-Luc/Neo-ET cell line (bicistronic genotype 1b replicon in Huh 7 cells) for this molecule: CC1c2cc3c(-c4ncc[nH]4)c(-c4ccc(F)cc4)oc3cc2N(S(C)(=O)=O)CCN1C (stereo not drawn)
> 8.00

Which pEC50 is reported with 1b_Huh-Luc/Neo-ET cell line (bicistronic genotype 1b replicon in Huh 7 cells) for this entry: CNC(=O)c1c(-c2ccc(F)cc2)oc2cc3c(cc12)C(C)OC(CN=[N+]=[N-])CN3S(C)(=O)=O (stereo not drawn) ?
> 8.00

Lab note: need pEC50 for CNC(=O)c1c(-c2ccc(Oc3ccc(F)cc3)cc2)oc2cc3c(cc12)[C@H](C)O[C@H](COC(=O)[C@H](C)N)CN3S(C)(=O)=O on 1b_Huh-Luc/Neo-ET cell line (bicistronic genotype 1b replicon in Huh 7 cells), anyone have it?
> 8.00
